Below is a list of entries, each paired with its recorded inhibition value.
Test: BT084 cell growth, single and combined drugs, ICGC_MB145, cisplatin and BGB IC40 combos (AID 1671461);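 also: cells exposed to drugs for 96 hours; 0% = vehicle DMSO and 100% = high DMSO full killing control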
Details: BT084 medulloblastoma cells, drug combinations, cisplatin combination, at 5 µM, stronger effect = higher value
Enter your answer as a number in %; do not include the unit.

Known results for molecules:
Nc1nc(=S)c2[nH]cnc2[nH]1    0.406
CCn1cc(C(=O)O)c(=O)c2cc3c(cc21)OCO3    -11.8
O=NN(CCCl)C(=O)NCCCl    5.72
Nc1nc2c(ncn2COC(CO)CO)c(=O)[nH]1    103
O=c1oc2c(O)c(O)cc3c(=O)oc4c(O)c(O)cc1c4c23    -19.7
CCN1CCN(c2cc3c(cc2F)c(=O)c(C(=O)O)cn3C2CC2)CC1    -23.4
CC(N)C12CC3CC(CC(C3)C1)C2 (stereo not given)    -3.55
Cc1ccnc2c1NC(=O)c1cccnc1N2C1CC1    -3.69

Prompt: Give inhibition for the following molecule: Nc1[nH]c(=O)ncc1F
Completion: -29

Prompt: Give inhibition for the following molecule: C[C@H]1COc2c(C3(N)CC3)c(F)cc3c(=O)c(C(=O)O)cn1c23
Completion: -31.8

---

Experiment: growth inhibition of GSK3B-pretreated HCT116 cells – cell-based, CellTiter-Glo, 0.2 to 20 µM (AID 1117336)
Details: HCT116 viability after GSK3B inhibitor, at 20 µM, stronger effect = higher value
assay_metric: viability decrease (%)
Enter your answer as a number in %; do not include the unit.

Known results for compounds:
CC(=O)OC/C=C(C)/C=C/C=C(C)/C=C/C1=C(C)CCCC1(C)C    -11.9
CCOc1cc(CC(=O)N[C@@H](CC(C)C)c2ccccc2N2CCCCC2)ccc1C(=O)O    70.5
CC(=O)Nc1ccc(CC(=O)O)cc1    -4.5
COc1ccc(C2C(=O)c3ccccc3C2=O)cc1    48.4
O=C(O)[C@@H](O)[C@H](O)[C@H](O)[C@@H](O)C(=O)O    -8.4
CC1=NN(c2ccccc2)C(=O)C1    10.2

Prompt: Give viability decrease for the following compound: CC(=O)Oc1c(C)c(C)c2c(c1C)CC[C@@](C)(CCC[C@H](C)CCC[C@H](C)CCCC(C)C)O2
Completion: -9.9

Prompt: Give viability decrease for the following compound: COc1ccc(CN(CCN(C)C)c2ccccn2)cc1
Completion: 3.3

Prompt: Give viability decrease for the following compound: Cc1ccc(C(C)C)cc2c(C)ccc1-2
Completion: -28.6

Prompt: Give viability decrease for the following compound: Cc1ccc2c(Cl)cc(Cl)c(O)c2n1
Completion: -3.9

Prompt: Give viability decrease for the following compound: CC(=O)OCC(=O)NCCCOc1cccc(CN2CCCCC2)c1
Completion: -69.8

Prompt: Give viability decrease for the following compound: CCN(CC)CCNC(=O)c1cc(Cl)c(N)cc1OC
Completion: -11.3

Prompt: Give viability decrease for the following compound: NC(CS)C(=O)O (centres undefined)
Completion: -0.35

Prompt: Give viability decrease for the following compound: CC(=O)Oc1cccc(O)c1
Completion: 0.4

Prompt: Give viability decrease for the following compound: O=C(OCC(O)CO)c1ccccc1Nc1ccnc2cc(Cl)ccc12 (centres undefined)
Completion: 53.3

Prompt: Give viability decrease for the following compound: CCCCCCCCCCCCCCCCCCOCC(O)CO (centres undefined)
Completion: -5.2

Prompt: Give viability decrease for the following compound: COc1ccccc1OCC(O)CN1CCN(CC(=O)Nc2c(C)cccc2C)CC1 (centres undefined)
Completion: -14.5

Prompt: Give viability decrease for the following compound: CC(C)NC[C@@H](O)COc1cccc2ccccc12
Completion: 6.9

---

Test system: F380Y
Test: BK channel mutant inhibitors and activators – cell-based, U2OS BacMam, thallium flux, beta subunits, selectivity assay, profiling panel (AID 1259406);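 also: initial slope of Thallos dye fluorescence rise after thallium is added; log ratio against the mean of 0.3% DMSO vehicle wells on the same plate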
Conditions: U2OS BacMam BK variants, at 30 µM
Activity calls are given as the source filed them.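 Rule for the calls: active = thallium flux through the channel raised or lowered by more than 3 SD from vehicle-only wells, actives on both sides; inactive = the rest.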
Below is a list of entries, each paired with its recorded log fold change Tl+ flux value.

Known results for molecules:
CCN1CCN(c2cc3c(cc2F)c(=O)c(C(=O)O)cn3C2CC2)CC1    -0.0402 (inactive)
CN(CCOc1ccc(NS(C)(=O)=O)cc1)CCc1ccc(NS(C)(=O)=O)cc1    0.0506 (inactive)
Cc1cccc(C)c1NC(=O)C(C)N (centres undefined)    -0.00461 (inactive)
O=C(CCNNC(=O)c1ccncc1)NCc1ccccc1    0.000985 (inactive)
CC(N)C12CC3CC(CC(C3)C1)C2 (centres undefined)    0.00103 (inactive)

Pending molecule:
Prompt: Give log fold change Tl+ flux for the following molecule: CC(=O)OCC(=O)NCCCOc1cccc(CN2CCCCC2)c1
Completion: -0.0125 (inactive)

---

Test: GLP1 release stimulators, primary, NCI-H716, NPC library (AID 1117341)
Conditions: NCI-H716 cells, at 10 µM, stronger effect = higher value
Below is a list of entries, each paired with its recorded GLP1 secretion stimulation value.
Enter your answer as a number in %; do not include the unit.

Known results for compounds:
CC(C)c1nc(CN(C)C(=O)N[C@H](C(=O)N[C@@H](Cc2ccccc2)C[C@H](O)[C@H](Cc2ccccc2)NC(=O)OCc2cncs2)C(C)C)cs1    -0.8
O=c1[nH]cnc2c1ncn2[C@@H]1O[C@H](CO)[C@@H](O)[C@H]1O    0.9
O=C(O)c1ccccc1O    6
CN1CCC(=C2c3ccccc3C=Cc3ccccc32)CC1    11.9
NC(N)=NS(=O)(=O)c1ccc(N)cc1    0.9
Cc1cccc(N(C)C(=S)Oc2ccc3ccccc3c2)c1    -2.7
COc1ccc2cc1Oc1ccc(cc1)C[C@H]1c3c(cc4c(c3Oc3cc5c(cc3OC)CCN(C)[C@@H]5C2)OCO4)CCN1C    1.9
CC1(C)NC(=O)N(c2ccc([N+](=O)[O-])c(C(F)(F)F)c2)C1=O    -1.4

Prompt: Give GLP1 secretion stimulation for the following compound: Cc1ncc([N+](=O)[O-])n1CC(O)CCl (stereo not given)
Completion: -0.1

Prompt: Give GLP1 secretion stimulation for the following compound: COC1=C(OC)C(=O)C(CCCCCCCCCCO)=C(C)C1=O
Completion: 2.2

Prompt: Give GLP1 secretion stimulation for the following compound: O=C(Nc1cccc(C2=NCCN2)c1)Nc1cccc(C2=NCCN2)c1
Completion: -1

Prompt: Give GLP1 secretion stimulation for the following compound: CO[C@@]1(NC(=O)CSCC#N)C(=O)N2C(C(=O)O)=C(CSc3nnnn3C)CS[C@@H]21
Completion: -2.4

Prompt: Give GLP1 secretion stimulation for the following compound: COc1cnc(NS(=O)(=O)c2ccc(N)cc2)nc1
Completion: 0.5

Prompt: Give GLP1 secretion stimulation for the following compound: Nc1ccc(S(=O)(=O)Nc2nccs2)cc1
Completion: -3.5

Prompt: Give GLP1 secretion stimulation for the following compound: CC(C)(C)C(O)/C=C/c1ccc2c(c1)OCO2 (stereo not given)
Completion: 1.9

Prompt: Give GLP1 secretion stimulation for the following compound: Nc1cc(-c2ccncc2)c[nH]c1=O
Completion: 0

Prompt: Give GLP1 secretion stimulation for the following compound: Cc1[nH]c(C)c(Cl)c(=O)c1Cl
Completion: 0.1

Prompt: Give GLP1 secretion stimulation for the following compound: CC(NCCC(c1ccccc1)c1ccccc1)c1ccccc1 (stereo not given)
Completion: -2.1

Prompt: Give GLP1 secretion stimulation for the following compound: NC(=NCCCCCCN=C(N)/N=C(\N)Nc1ccc(Cl)cc1)/N=C(\N)Nc1ccc(Cl)cc1
Completion: 161

Prompt: Give GLP1 secretion stimulation for the following compound: COC(=O)C1=C(C)NC(C)=C(C(=O)OC(C)C)C1c1cccc2nonc12 (stereo not given)
Completion: -2.4

Prompt: Give GLP1 secretion stimulation for the following compound: CCOC(=O)[C@H](CCc1ccccc1)N[C@@H](C)C(=O)N1[C@H](C(=O)O)C[C@@H]2CCC[C@@H]21
Completion: 2.1

Prompt: Give GLP1 secretion stimulation for the following compound: C/C=C/c1ccc(OC)cc1
Completion: -1.8

Prompt: Give GLP1 secretion stimulation for the following compound: CCOC(=O)n1ccn(C)c1=S
Completion: 0.3

Prompt: Give GLP1 secretion stimulation for the following compound: C[C@](N)(Cc1ccc(O)cc1)C(=O)O
Completion: 1.3

Prompt: Give GLP1 secretion stimulation for the following compound: CCCc1c(OCCCCc2nn[nH]n2)ccc(C(C)=O)c1O
Completion: 6.3

---

Experiment: restoration of touch response, mutant HTT neurons – whole organism, C. elegans mechanosensory neurons, N-terminal huntingtin (AID 1599)
Conditions: C. elegans polyQ-huntingtin mechanosensory neurons, stronger effect = higher value
Potency and affinity values are given separately.
assay_metric: rescue above control
Lab note: jot down the number only; don't add units.

CCCCCCc1ccc(O)cc1O    -4.19
CO[C@@]1(NC(=O)C(C(=O)O)c2ccc(O)cc2)C(=O)N2C(C(=O)O)=C(CSc3nnnn3C)CO[C@@H]21 (some centres not stated)    12.8

Prompt: Give rescue above control for the following compound: Cc1cc(NC(=O)C2=C(O)c3ccccc3S(=O)(=O)N2C)no1
Completion: -11.8

Prompt: Give rescue above control for the following compound: CCCCCCCCNC(C)C(O)c1ccc(SC(C)C)cc1 (configuration not stated)
Completion: 0

Prompt: Give rescue above control for the following compound: CCN(CCCCOC(=O)c1ccc(OC)c(OC)c1)C(C)Cc1ccc(OC)cc1 (configuration not stated)
Completion: 1.7

Prompt: Give rescue above control for the following compound: CCCCCCCCCCCCCCCCCCOCC(O)CO (configuration not stated)
Completion: 2.94
